Numbers sourced from patent US20240368163A1.

- METHOD_NOTES: Transwell assay for membrane efflux and permeability
- Assay type: in vitro ADME, Canine
- ASSAY_SETUP: dog; MDCK-BCRP or MDCKII-MDR1 transwell, test compound 1 μM, 2 hours at 37° C.
What efflux ratio at 2 h, 1 μM was measured for each of the following?

For each listed entry, give its efflux ratio at 2 h, 1 μM.
1. COc1cc(-c2ccc(-c3ccc(N(C)[C@@H]4C[C@H]5CC[C@@H](C4)N5)nn3)c3[nH]ncc23)ccn1
2. CC1(C)CC(Nc2ccc(-c3ccc(-c4cn[nH]c4)c4ncsc34)nn2)CC(C)(C)N1
3. Fc1ccn(-c2ccc(-c3ccc(O[C@@H]4C[C@H]5CC[C@@H](C4)N5)nn3)c3scnc23)n1
4. c1nc2c(-c3cn[nH]c3)ccc(-c3ccc(N[C@@H]4C[C@H]5CC[C@@H](C4)N5)nn3)c2s1
5. c1cnn(-c2ccc(-c3cnc(N[C@@H]4C[C@H]5CC[C@@H](C4)N5)nn3)c3cn[nH]c23)c1

Output:
["> 5", "> 5", "1.5 to 5", "> 5", "> 5"]

# return efflux ratio at 2 h, 1 μM for each item in the list
1. c1n[nH]cc1-c1ccc(-c2ccc(N[C@@H]3C[C@H]4CCC[C@@H](C3)N4)nn2)c2[nH]ncc12
2. CN(c1ccc(-c2ccc(-c3cn[nH]c3)c3ncsc23)nn1)[C@@H]1C[C@H]2CC(F)(F)[C@@H](C1)N2 (stereo in doubt)
3. COc1nc(-c2ccc(OC3CC(C)(C)NC(C)(C)C3)nn2)cc(F)c1-c1cn[nH]c1
4. CN(c1ncc(-c2ccc(-n3cncn3)c3[nH]ncc23)nn1)[C@@H]1C[C@H]2CCC[C@@H](C1)N2
5. CN(c1ccc(-c2ccc(-c3cnn(C)c3)c3cn[nH]c23)nn1)C1CCNCC1
6. Cc1ncc(-c2ccc(-c3cnc(N(C)[C@@H]4C[C@H]5CCC[C@@H](C4)N5)nn3)c3scnc23)s1
7. CC1(C)CC(Oc2ccc(-c3ccc(-c4cn[nH]c4)c4ncsc34)nn2)CCN1 (stereo not drawn)

Output:
1: 1.5 to 5; 2: 1.5 to 5; 3: > 5; 4: > 5; 5: > 5; 6: > 5; 7: > 5

====

- Test system: HTT
- METHOD_NOTES: Splicing RT-qPCR assay, HTT mRNA canonical junction (CJ) and alternative junction (AJ)
- Format: cell-based, human
- ASSAY_SETUP: Homo sapiens, RT-qPCR panel, canonical junction mRNA; compound concentration having 50% response in CJ decrease; read-out: HTT IC50 (decrease in CJ mRNA levels)
MEASURED_PROPERTY: IC50

Consider the following illustrative entries.
>>> meas_value("c1n[nH]cc1-c1ccc(-c2ccc(N3C[C@H]4CNC[C@H]4C3)nn2)c2[nH]ncc12")
"> 10000 nM"
>>> meas_value("CN(c1cnc(-c2cc(F)c(-c3cnn(C)c3)c3cn[nH]c23)nn1)[C@@H]1C[C@H]2CC[C@@H](C1)N2")
"< 100 nM"
>>> meas_value("CN(c1ccc(-c2ccc(-c3cnn(C)n3)c3cn[nH]c23)nn1)C1CCNCC1")
"1000 to 10000 nM"
>>> meas_value("CC1(C)CC(Oc2ccc(-c3cc(F)c(-c4cn[nH]c4)c4cn[nH]c34)nn2)CC(C)(C)N1")
"100 to 1000 nM"
>>> meas_value("c1nc2c(-c3cn[nH]c3)ccc(-c3ccc(O[C@@H]4C[C@H]5CC[C@@H](C4)N5)nn3)c2s1")
"100 to 1000 nM"
>>> meas_value("c1nc2c(-c3cn[nH]c3)ccc(-c3ccc(N[C@H]4C[C@H]5COC[C@@H](C4)N5)nn3)c2s1")
"> 10000 nM"
>>> meas_value("CN(c1ccc(-c2ccc(-c3cn[nH]c3)c3ncsc23)nn1)[C@@H]1C[C@H]2CC(F)(F)[C@@H](C1)N2 (stereo in doubt)")
"< 100 nM"
>>> meas_value("CN(c1ccc(-c2ccc(-c3cn[nH]c3)c3cn[nH]c23)nn1)[C@H]1[C@@H]2CNC[C@@H]21")
"> 10000 nM"

Your task in this section: give IC50 for each listed record.
1. COc1cc(-c2ccc(-c3ccc(N(C)C4CC(C)(C)NC(C)(C)C4)nn3)c3ncsc23)ccn1
2. c1n[nH]cc1-c1ccc(-c2ccc(N3CCC4(CCNCC4)C3)nn2)c2[nH]ncc12
3. CC(C)(C)NC1CCN(c2ncc(-c3ccc(-c4cn[nH]c4)c4ncsc34)nn2)C1 (stereo not drawn)
4. Cn1cc(-c2c(F)cc(-c3ccc(NC4CCNCC4)nn3)c3[nH]ncc23)cn1
5. c1nc2c(-c3cn[nH]c3)ccc(-c3ccc(O[C@H]4C[C@H]5COC[C@@H](C4)N5)nn3)c2s1

Output:
["> 10000 nM", "> 10000 nM", "100 to 1000 nM", "1000 to 10000 nM", "> 10000 nM"]

Dear colleague, could you please provide IC50 for the compounds listed below?
1. c1nc2c(-c3cn[nH]c3)ccc(-c3ccc(N(C4CCNCC4)C4CC4)nn3)c2s1
2. CN(c1ccc(-c2ccc(-n3cccn3)c3nn[nH]c23)nn1)[C@@H]1C[C@H]2CC[C@@H](C1)N2
3. Cc1n[nH]c2c(-c3ccc(N(C)[C@@H]4C[C@H]5CC[C@@H](C4)N5)nn3)ccc(-c3cnn(C)n3)c12
4. CC(C)(C)NC1CCN(c2ccc(-c3ccc(-c4cn[nH]c4)c4cn[nH]c34)nn2)C1 (stereo not drawn)
5. c1nc2c(-c3cn[nH]c3)ccc(-c3ccc(N4CCC5(CCCNC5)C4)nn3)c2s1 (stereo not drawn)
6. CC1(C)CC(Oc2ccc(-c3ccc(-c4cn[nH]c4)c4cn[nH]c34)nn2)CC(C)(C)N1

Output:
1000 to 10000 nM
100 to 1000 nM
> 10000 nM
100 to 1000 nM
> 10000 nM
100 to 1000 nM

Record IC50 for all entries; do not skip any.
1. Cn1cc(-c2ccc(-c3ccc(OC4CC(C)(C)NC(C)(C)C4)nn3)c3[nH]ncc23)cn1
2. CN(c1ccc(-c2ccc(-c3ccc(=O)[nH]c3)c3scnc23)nn1)C1CC(C)(C)NC(C)(C)C1
3. CCN(c1ccc(-c2ccc(-c3cn[nH]c3)c3cn[nH]c23)nn1)C1CCNCC1
4. c1cnn(-c2ccc(-c3ccc(N[C@@H]4C[C@H]5CC[C@@H](C4)N5)nn3)c3[nH]ncc23)c1
5. c1nc2c(-c3cn[nH]c3)ccc(-c3ccc(N4CCC5(CCNC5)CC4)nn3)c2s1
6. Fc1cc(-c2ccc(O[C@@H]3C[C@H]4CC[C@@H](C3)N4)nn2)c2[nH]ncc2c1-c1cn[nH]c1
7. CN(c1ccc(-c2ccc(-c3ccc(=O)n(C)c3)c3ncsc23)nn1)C1CC(C)(C)NC(C)(C)C1
8. CN(c1ncc(-c2ccc(-n3ccnn3)c3[nH]ncc23)nn1)[C@@H]1C[C@H]2CCC[C@@H](C1)N2

Output:
["1000 to 10000 nM", "100 to 1000 nM", "> 10000 nM", "< 100 nM", "> 10000 nM", "< 100 nM", "> 10000 nM", "< 100 nM"]

For every item in the list below, what is its measured IC50?
1. CN1CCN(c2ncc(-c3ccc(-c4cn[nH]c4)c4ncsc34)nn2)CC1C1CC1 (stereo not drawn)
2. CN(c1ccc(-c2ccc(-c3cn[nH]c3)c3cn[nH]c23)nn1)[C@@H]1C[C@H]2CC[C@@H](C1)N2

Output:
1. 100 to 1000 nM
2. 100 to 1000 nM

Input: Provide IC50 value for the following compound: c1n[nH]cc1-c1ccc(-c2ccc(N3CCC4(CCCNC4)C3)nn2)c2[nH]ncc12 (stereo not drawn)
Output: > 10000 nM
